Tested on: Plasmodium falciparum
Assay: Screen against P. falciparum Asexual Blood Stage (ABS), at 5uM
Format: functional, Dd2
Conditions: tested at 5 uM
Screen size: about 65,000 compounds; about 2,100 (3.2%) showed an effect of 50% or more. The median lay at about -52%. The list comes from a sample in which strong results are over-represented; it also holds close analogues and randomly drawn compounds.
VALUE KIND: INHIBITION
Answers without a unit are incomplete; give the number and then its unit.

Ask: Give the reported value of INHIBITION for this record: COc1cc(C2SCC(=O)Nc3[nH]ncc32)c(OC)c2c1OCO2 (stereo not given)
Result: -118%

Ask: Fill in INHIBITION for record CN(C)CC(=O)N1C[C@H]2CCC[C@@]2(COc2ccccn2)C1
Result: 84.9%

Ask: # return recorded INHIBITION for entry CC(C)n1ccc2c(C(=O)NC3CN4CCC3CC4)cccc21 (stereo not given)
Result: -67.1%

Ask: Give INHIBITION for the following compound: c1cc(CO[C@@H]2CC[C@H]3[C@H]2OCCN3Cc2ccoc2)ccn1
Result: -169%

Ask: Supply INHIBITION value. Item: Cn1cc(CN2C[C@H]3CCC[C@@]3(COc3cccnc3)C2)cn1
Result: 17.2%

Continuing:
Ask: Quick one: give measured INHIBITION for c1ccc(COC[C@@]23CCC[C@@H]2CN(Cc2ccccn2)C3)nc1
Result: -56.9%

Ask: Kindly indicate its recorded INHIBITION. Item: Cc1ccc(NC(=O)N2CCC(CO)(Nc3ccccc3)CC2)cc1
Result: -31.275%

Ask: Name the recorded INHIBITION of the item Cn1cc(C2SCC(=O)Nc3c2c(=O)[nH]n3C2CCOCC2)cn1 (stereo not given) in your answer.
Result: -57.4%

Ask: Give the measured INHIBITION for Cc1cc(C)nc(-n2nc(C)c3c2NC(=O)CSC3c2cnn(C)c2)n1 (stereo not given)
Result: -48.5%

Ask: Query INHIBITION for CC(C)CCN1C[C@@H]2C[C@H](C(=O)Nc3cccnc3)[C@H](C1)O2
Result: -112%
